assay: protein stability index of a GFP-peptide fusion (GPS, HEK-293T) (PSI 1-6); higher = more stable; conditions: treatment: DMSO; c terminus: a fixed tail appended;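 also: 24-mer peptide tiles fused after GFP, lentivirally expressed, FACS-sorted into six equal bins by GFP/DsRed ratio, decoded by Illumina sequencing, PSI is the read-weighted mean bin number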
Below: a set of entries, each annotated with reported protein stability index.
Response field accepts a number only; no unit should be typed.

Example sequences with recorded protein stability index:
[
  {
    "Sequence code": "ISNIDTTIEGTSDDLTVVDAASLR [MFF]",
    "protein stability index": 5.09
  },
  {
    "Sequence code": "APIRVRNLTIRAGALTGKENNMLQ [DMRTC1]",
    "protein stability index": 3.46
  },
  {
    "Sequence code": "ANWQPKVAPATWSAGVPPSAPLQG [SNAP91]",
    "protein stability index": 4
  },
  {
    "Sequence code": "TNFVSRYDPRFNSWIQLPPMQERR [KLHL14]",
    "protein stability index": 3.22
  },
  {
    "Sequence code": "MAAADAEAVPARGEPQQDCCVKTE [EHMT1]",
    "protein stability index": 5.63
  },
  {
    "Sequence code": "IRNSRPLVKKVEEDEAGGRFVAFS [UFD1]",
    "protein stability index": 4.11
  },
  {
    "Sequence code": "SAILQFPSTLGRCKAFSTCVSHLI [OR10K2]",
    "protein stability index": 2.5
  },
  {
    "Sequence code": "RADPLVCATGLLGSAPFLFLSLAC [SPNS1]",
    "protein stability index": 3.37
  },
  {
    "Sequence code": "RRLKQAKEEAQAEIEQYRLQREKE [ATP6V1G1]",
    "protein stability index": 5.47
  },
  {
    "Sequence code": "VPFVRVKREREVDEDSEPEREVRA [USP39]",
    "protein stability index": 5.15
  }
]

// next entry
// query protein stability index value for entry ETELSLRQLVEADINGLRRILDEL [KRT36]
3.12
